Test system: HIV-1 NL4-3 strain
Assay: Evaluation of antiviral activity: acute infection system of MT-4 cell with HIV-1 NL4-3 strain
Assay type: cell-based
Details: Human immunodeficiency virus 1, NL43, MT4, 120 h, read-out: antiviral activity (EC50), MT-4 cells infected with HIV-1 NL4-3 strain (MOI 0.05), cultured 5 days, Cell Titer-Glo
Structures can show the parent of a compound that is named as a salt.
assay.metric: pEC50
Answers are plain numbers, as −log10 of the molar value.

-- ask Enter reported pEC50 observed with HIV-1 NL4-3 strain for COC[C@H]1C[C@@]12CN(C)C(=O)c1c(O)c(=O)c(C(=O)NCc3ccc(F)cc3F)cn12 [Example T3, hydrochloride]
-- reply 8.35

-- ask Let us now turn to CCN1C[C@]2(C[C@H]2CO)n2cc(C(=O)NCc3ccc(F)cc3F)c(=O)c(O)c2C1=O [Example T10, hydrochloride]
-- reply 7.80

Continuing:
-- ask Enter reported pEC50 observed with HIV-1 NL4-3 strain for COC[C@H]1C[C@@]12CN(C)C(=O)c1c(O)c(=O)c(C(=O)NCc3ccc(OC)c(Cl)c3F)cn12 [Example T22, hydrochloride]
-- reply 8.31

----------
System: HIV-1 NL4-3 strain
Test: Evaluation of antiviral activity: acute infection system of MT-4 cell with HIV-1 NL4-3 strain
Format: cell-based
Details: Human immunodeficiency virus 1, NL43, MT4, 120 h, read-out: antiviral activity (EC50), MT-4 cells infected with HIV-1 NL4-3 strain (MOI 0.05), cultured 5 days, Cell Titer-Glo
Structures can show the parent of a compound that is named as a salt.
assay.metric: pEC50
Give bare numbers, as −log10 of the molar value.

Here are 6 compounds. What values of pEC50 were reported for them?
1. COC[C@H]1C[C@@]12CN(C)C(=O)c1c(O)c(=O)c(C(=O)NCc3cc(OC(C)C)cc(Cl)c3F)cn12 [Example T26, hydrochloride]
2. CCN1C[C@@]2(C[C@@H]2CO)n2cc(C(=O)NCc3cccc(Cl)c3F)c(=O)c(O)c2C1=O [Example T18, hydrochloride]
3. CCOc1cc(Cl)c(F)c(CNC(=O)c2cn3c(c(O)c2=O)C(=O)N(C)C[C@@]32C[C@@H]2COC)c1 [Example T25, hydrochloride]
4. CCN1C[C@@]2(C[C@@H]2CO)n2cc(C(=O)NCc3ccc(F)cc3F)c(=O)c(O)c2C1=O [Example T1, hydrochloride]
5. COC[C@@H]1C[C@]12CN(C)C(=O)c1c(O)c(=O)c(C(=O)NCc3cccc(Cl)c3F)cn12 [Example T24, hydrochloride]
6. CCN1C(=O)c2c(O)c(=O)c(C(=O)NCc3ccc(F)cc3F)cn2C[C@@]12C[C@@H]2CO [Example T39, hydrochloride]

-- reply
7.82
8.00
8.15
7.74
8.49
8.55

----------
Provide the reported pEC50 of each item.
Tested on: HIV-1 NL4-3 strain
Assay: Evaluation of antiviral activity: acute infection system of MT-4 cell with HIV-1 NL4-3 strain
Format: cell-based
Conditions: Human immunodeficiency virus 1, NL43, MT4, 120 h, read-out: antiviral activity (EC50), MT-4 cells infected with HIV-1 NL4-3 strain (MOI 0.05), cultured 5 days, Cell Titer-Glo
Structures can show the parent of a compound that is named as a salt.
One number for each entry, as −log10 of the molar value.

Look over these answered cases.
-- ask What value of pEC50 has been recorded for this entry: COC[C@@H]1C[C@]12CN(C)C(=O)c1c(O)c(=O)c(C(=O)NCc3ccc(OC)c(Cl)c3F)cn12 [Example T36, hydrochloride]
-- reply 8.00

-- ask Let us now turn to CCOC[C@@H]1C[C@]12CN(C)C(=O)c1c(O)c(=O)c(C(=O)NCc3ccc(OC)c(Cl)c3F)cn12 [Example T35, hydrochloride]
-- reply 7.77

Alright, here's another molecule for you.
-- ask What value of pEC50 has been recorded for this entry: CN1C[C@@]2(C[C@@H]2CO)n2cc(C(=O)NCc3cccc(Cl)c3F)c(=O)c(O)c2C1=O [Example T15, hydrochloride]
-- reply 7.70

Reference source for all entries: patent US10087178B2
